target: Dual specificity tyrosine-phosphorylation-regulated kinase 2 (Homo sapiens, UniProt Q92630)
Sequence (Q92630 whole entry): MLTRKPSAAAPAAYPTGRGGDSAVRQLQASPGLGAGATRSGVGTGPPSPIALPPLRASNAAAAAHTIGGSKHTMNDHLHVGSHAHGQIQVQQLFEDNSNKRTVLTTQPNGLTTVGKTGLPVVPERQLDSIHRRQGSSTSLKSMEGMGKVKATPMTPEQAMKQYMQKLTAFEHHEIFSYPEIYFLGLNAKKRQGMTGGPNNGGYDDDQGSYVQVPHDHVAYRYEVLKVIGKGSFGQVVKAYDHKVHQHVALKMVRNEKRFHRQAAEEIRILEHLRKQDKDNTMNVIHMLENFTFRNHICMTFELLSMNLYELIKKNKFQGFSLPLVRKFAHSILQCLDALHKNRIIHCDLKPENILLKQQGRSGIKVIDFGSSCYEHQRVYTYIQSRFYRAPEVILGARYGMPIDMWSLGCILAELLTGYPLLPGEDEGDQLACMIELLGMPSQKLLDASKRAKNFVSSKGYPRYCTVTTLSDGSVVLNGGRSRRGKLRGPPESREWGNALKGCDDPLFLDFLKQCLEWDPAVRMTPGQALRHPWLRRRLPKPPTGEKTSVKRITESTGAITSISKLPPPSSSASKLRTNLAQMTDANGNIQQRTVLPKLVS
readout: IC50 (nM)
State the answer as a number, implicitly in nM.

Notebook: Nc1nccc(-c2cn(C(=O)N3CCOCC3)c3ccc(Br)cc23)n1 , IC50 read as 1400

---

What viability at 24 h, 30 µM was measured for each of the following?
assay name: Cytotoxicity against human SH-SY5Y cells assessed as cell viability at 30 uM after 24 hrs by MTT assay relative to control
Type: cell-based
condition summary: read-out: Activity
State the answer as a number, implicitly in %.

Notebook: Nc1nccc(-c2c[nH]c3ccccc23)n1 , viability at 24 h, 30 µM read as 91.4

Notebook: Cc1noc(C)c1Cn1cc(-c2ccnc(N)n2)c2cc(Br)ccc21 , viability at 24 h, 30 µM read as 83.1

Notebook: Nc1nccc(-c2cn(S(=O)(=O)c3cccc(C(F)(F)F)c3)c3ccc(Br)cc23)n1 , viability at 24 h, 30 µM read as 38.8

Notebook: Nc1nccc(-c2cn(S(=O)(=O)c3ccc(I)cc3)c3ccccc23)n1 , viability at 24 h, 30 µM read as 57.5

Notebook: CN1CCN(C(=O)n2cc(-c3ccnc(N)n3)c3cc(Br)ccc32)CC1 , viability at 24 h, 30 µM read as 91.8

Notebook: COc1cccc(C(=O)n2cc(-c3ccnc(N)n3)c3ccccc32)c1 , viability at 24 h, 30 µM read as 94.6

Notebook: CC(C)(C)c1ccc(S(=O)(=O)n2cc(-c3ccnc(N)n3)c3cc(Br)ccc32)cc1 , viability at 24 h, 30 µM read as 109

Notebook: Cc1cc(C)c(S(=O)(=O)n2cc(-c3ccnc(N)n3)c3ccccc32)c(C)c1 , viability at 24 h, 30 µM read as 40

Notebook: COCCn1cc(-c2ccnc(N)n2)c2cc(Br)ccc21 , viability at 24 h, 30 µM read as 75.3

Notebook: COc1ccc(Br)cc1S(=O)(=O)n1cc(-c2ccnc(N)n2)c2ccccc21 , viability at 24 h, 30 µM read as 96.2

Notebook: Nc1nccc(-c2cn(Cc3c4ccccc4cc4ccccc34)c3ccc(Br)cc23)n1 , viability at 24 h, 30 µM read as 79.8

Notebook: Nc1nccc(-c2cn(S(=O)(=O)c3ccc(C(F)(F)F)cc3)c3ccc(Br)cc23)n1 , viability at 24 h, 30 µM read as 85

Notebook: Nc1nccc(-c2cn(S(=O)(=O)c3ccc4c(c3)OCCO4)c3ccc(Br)cc23)n1 , viability at 24 h, 30 µM read as 112

Notebook: Nc1nccc(-c2cn(C(=O)c3ccccc3)c3ccc(Br)cc23)n1 , viability at 24 h, 30 µM read as 65.1

Notebook: CN1CCN(C(=O)n2cc(-c3ccnc(N)n3)c3ccccc32)CC1 , viability at 24 h, 30 µM read as 82

Notebook: CC(C)(C)c1ccc(S(=O)(=O)n2cc(-c3ccnc(N)n3)c3ccccc32)cc1 , viability at 24 h, 30 µM read as 86.3

Notebook: Nc1nccc(-c2cn(C(=O)c3ccccc3)c3ccccc23)n1 , viability at 24 h, 30 µM read as 106

Notebook: N#Cc1ccc(S(=O)(=O)n2cc(-c3ccnc(N)n3)c3ccccc32)cc1 , viability at 24 h, 30 µM read as 110

Notebook: Nc1nccc(-c2c[nH]c3ccc(Br)cc23)n1 , viability at 24 h, 30 µM read as 92.9

Notebook: Nc1nccc(-c2cn(S(=O)(=O)c3ccc(C(F)(F)F)cc3)c3ccccc23)n1 , viability at 24 h, 30 µM read as 95.6

Notebook: N#Cc1ccc(S(=O)(=O)n2cc(-c3ccnc(N)n3)c3cc(Br)ccc32)cc1 , viability at 24 h, 30 µM read as 106
